# measurement description: Selectivity index, Ratio of IC50 for Vero cells over MIC for Mycobacterium tuberculosis H37Rv
# Type: toxicity
# recorded conditions: monkey
Parameter selectivity ratio: see the listing below.
readout: selectivity ratio

structure_notation=CC(C)OC(=O)NC(=O)c1ccsc1NC(=O)c1ccc(S(=O)(=O)N2CCOCC2)cc1 readout="selectivity ratio" limit_operator== readout_value=29
structure_notation=CCOC(=O)NC(=O)c1ccsc1NC(=O)c1ccc(S(=O)(=O)N2CCCCCC2)cc1 readout="selectivity ratio" limit_operator== readout_value=143
structure_notation=COC(=O)NC(=O)c1ccsc1NC(=O)c1ccc(S(=O)(=O)NC2CCCCC2)cc1 readout="selectivity ratio" limit_operator=> readout_value=70
structure_notation=CCOC(=O)NC(=O)c1ccsc1NC(=O)c1ccc(S(=O)(=O)N2CCC2)cc1 readout="selectivity ratio" limit_operator=> readout_value=1310
structure_notation=CCOC(=O)NC(=O)c1ccsc1NC(=O)c1ccc(S(=O)(=O)Nc2ccccc2)cc1 readout="selectivity ratio" limit_operator== readout_value=21
structure_notation=COC(=O)NC(=O)c1ccsc1NC(=O)c1ccc(S(=O)(=O)N2CCC2)cc1 readout="selectivity ratio" limit_operator== readout_value=134
structure_notation=COC(=O)NC(=O)c1ccsc1NC(=O)c1ccc(S(=O)(=O)N2CCCCCC2)cc1 readout="selectivity ratio" limit_operator== readout_value=42
structure_notation=COC(=O)NC(=O)c1ccsc1NC(=O)c1ccc(S(=O)(=O)N2CCCC2)cc1 readout="selectivity ratio" limit_operator== readout_value=395
structure_notation=Cc1ccnc(NC(=O)c2ccsc2NC(=O)c2ccc(S(=O)(=O)N3CCCCC3)cc2)n1 readout="selectivity ratio" limit_operator== readout_value=137

# credit: ChEMBL document CHEMBL5154717
